# assay-comment: Pharmacokinetic test in dogs
# Assay type: in vivo, male beagles
# condition-notes: male, beagle, dog, plasma, PO 2 mg/kg, read-out: C0 or Cmax
# Description: Test objective: the pharmacokinetic characteristics and bioavailability of test compounds in dogs were evaluated. Test animals: twelve male beagles, 8-10 kg, 0.5-1.5 years old, purchased from Beijing Marshall Biotechnology Co. Ltd., with the production license number of SCXK (JING) 2016-001. Vehicle for intravenous administration: 5% DMSO+5% Solutol+90% Saline; • vehicle for intragastric administration: 1% DMSO+1% Solutol+98% (0.5% MC); […]
recorded-metric: Cmax

In plain terms, [2H]C([2H])([2H])N(c1nc(-c2ccc(F)cc2)c(C#N)s1)c1c(CC)nn2cc(F)c(N3CCN(CC(=O)N4CC(O)C4)CC3)cc12 [Compound 3] has a documented Cmax of 1620 ng/mL
